Experimental protocol: Inhibition of alpha glucosidase (unknown origin) using PNPG as substrate preincubated for 15 to 20 mins followed by substrate addition measured after 45 to 60 mins by spectrophotometric method
Condition set: read-out: IC50
Readout label: IC50 (µM)
Write the value in µM as a bare number.

What IC50 value was documented for this compound, O=C(/C=C/c1ccc(C(F)(F)F)cc1)N1C[C@@H](O)[C@@H](O)C1 ? 638

What IC50 value was documented for this compound, CC(C)(C)OC(=O)Nc1ccc(CCC(=O)N2C[C@@H](O)[C@@H](O)C2)cc1 ? 556

What IC50 value was documented for this compound, O=S(=O)(c1ccc(OC(F)(F)F)cc1)N1C[C@H](O)[C@@H](O)C1 ? 228

What IC50 value was documented for this compound, OCCN1C[C@H](O)[C@@H](O)[C@H](O)[C@H]1CO ? 462

What IC50 value was documented for this compound, O=C(/C=C/c1ccccc1F)N1C[C@@H](O)[C@H](O)C1 ? 862

What IC50 value was documented for this compound, O=C(/C=C/c1ccc(C(F)(F)F)cc1)N1C[C@@H](O)[C@H](O)C1 ? 605

What IC50 value was documented for this compound, O=C(CCc1ccc(C(F)(F)F)cc1)N1C[C@@H](O)[C@H](O)C1 ? 856

What IC50 value was documented for this compound, Cn1c(C(=O)N2C[C@H](O)[C@@H](O)C2)cc2ccccc21 ? 556

What IC50 value was documented for this compound, O=C(/C=C/c1ccc(O)cc1)N1C[C@@H](O)[C@H](O)C1 ? 546

What IC50 value was documented for this compound, O=C(CCc1ccc(N(S(=O)(=O)c2ccc(C(F)(F)F)cc2)S(=O)(=O)c2ccc(C(F)(F)F)cc2)cc1)N1C[C@H](O)[C@@H](O)C1 ? 114

What IC50 value was documented for this compound, O=C(CCc1ccccc1C(F)(F)F)N1C[C@@H](O)[C@H](O)C1 ? 272

What IC50 value was documented for this compound, O=C(/C=C/c1ccc(C(F)(F)F)cc1)N1C[C@H](O)[C@@H](O)C1 ? 652

What IC50 value was documented for this compound, O=C(Nc1ccc(CCC(=O)N2C[C@@H](O)[C@H](O)C2)cc1)c1ccsc1 ? 474

What IC50 value was documented for this compound, O=S(=O)(c1ccc(C(F)(F)F)cc1)N1C[C@H](O)[C@@H](O)C1 ? 497

What IC50 value was documented for this compound, O=C(CCc1ccc(O)cc1)Nc1ccc(CCC(=O)N2C[C@@H](O)[C@H](O)C2)cc1 ? 104

What IC50 value was documented for this compound, Cn1c(C(=O)N2C[C@@H](O)[C@H](O)C2)cc2ccccc21 ? 539

What IC50 value was documented for this compound, O=S(=O)(c1ccc(O)cc1)N1C[C@@H](O)[C@H](O)C1 ? 607
